Origin of measurements: ChEMBL document CHEMBL1126898

Molecular target: Sodium-dependent dopamine transporter (Rattus norvegicus)
Sequence (P23977 whole entry): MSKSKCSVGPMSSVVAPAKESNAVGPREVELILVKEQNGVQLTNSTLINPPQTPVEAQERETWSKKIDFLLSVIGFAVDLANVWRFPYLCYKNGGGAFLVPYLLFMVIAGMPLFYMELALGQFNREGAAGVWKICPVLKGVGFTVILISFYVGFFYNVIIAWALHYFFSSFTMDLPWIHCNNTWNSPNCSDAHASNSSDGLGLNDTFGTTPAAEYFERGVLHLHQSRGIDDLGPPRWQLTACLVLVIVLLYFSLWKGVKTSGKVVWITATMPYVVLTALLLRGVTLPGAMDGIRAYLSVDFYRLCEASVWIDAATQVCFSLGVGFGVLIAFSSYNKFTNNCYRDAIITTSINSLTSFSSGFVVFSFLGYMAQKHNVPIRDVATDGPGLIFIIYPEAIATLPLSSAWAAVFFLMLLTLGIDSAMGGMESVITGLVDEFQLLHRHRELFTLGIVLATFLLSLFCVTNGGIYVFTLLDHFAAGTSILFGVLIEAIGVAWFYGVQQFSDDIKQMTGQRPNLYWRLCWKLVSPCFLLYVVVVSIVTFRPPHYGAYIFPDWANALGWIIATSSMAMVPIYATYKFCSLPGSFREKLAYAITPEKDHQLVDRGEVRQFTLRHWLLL
Experiment: Inhibition of [3H]WIN-35428 binding to dopamine transporter in rat striatal membranes.
pIC50: −log10 of the molar value.
quantity name: pIC50

> print(dat)
                                   molecule  quantity.name  value.observed
1  COC(=O)C1C2CCC(C[C@H]1OC(=O)c1ccccc1)N2Cc1ccccc1 (stereo not given in full)          pIC50            6.18
2  CN1C2CCC1C(C(=O)OCCc1ccccc1)[C@H](OC(=O)c1ccccc1)C2 (stereo not given in full)          pIC50            6.61
3  COC(=O)C1C2CCC(C[C@H]1OC(=O)c1ccccc1)N2 (stereo not given in full)          pIC50            6.52
4  COC(=O)C1C2CCC(C[C@H]1c1ccccc1)N2C (stereo not given in full)          pIC50            7.64
5  CN1C2CCC1C(C(=O)Oc1ccccc1)[C@H](OC(=O)c1ccccc1)C2 (stereo not given in full)          pIC50            6.95
